Tested on: T-cell
protocol summary: Antagonist activity at PKA in human CD3-positive T cells assessed as inhibition of cell proliferation after 72 hrs by [H]thymidine incorporation assay
Assay type: functional, cell-based
The source made the active and inactive calls. The rule behind the calls is not given here.
Outcomes you can answer with include only these: label 1 = active, label 0 = inactive

CCCNc1ncnc2c1nc(-c1ccco1)n2[C@@H]1O[C@@H]2COP(=O)(S)O[C@H]2[C@H]1O (stereo not given in full) ... label 1
CCCCNc1ncnc2c1nc(-c1ccco1)n2[C@@H]1O[C@@H]2COP(=O)(S)O[C@H]2[C@H]1O (stereo not given in full) ... label 1
CNc1ncnc2c1nc(-c1ccco1)n2[C@@H]1O[C@@H]2COP(=O)([S-])O[C@H]2[C@H]1O.[Na+] (stereo not given in full) ... label 1
O=P1([S-])OC[C@H]2O[C@@H](n3c(-c4ccco4)nc4c(NCc5ccccc5)ncnc43)[C@H](O)[C@@H]2O1.[Na+] (stereo not given in full) ... label 0

Which outcome did this test record for the compound CN(C)c1ncnc2c1nc(-c1ccco1)n2[C@@H]1O[C@@H]2COP(=O)([S-])O[C@H]2[C@H]1O.[Na+] (stereo not given in full) ?
label 0
